- test_system: TDP-43 (Homo sapiens, UniProt Q13148 1-414)
- Sequence (Q13148 whole entry): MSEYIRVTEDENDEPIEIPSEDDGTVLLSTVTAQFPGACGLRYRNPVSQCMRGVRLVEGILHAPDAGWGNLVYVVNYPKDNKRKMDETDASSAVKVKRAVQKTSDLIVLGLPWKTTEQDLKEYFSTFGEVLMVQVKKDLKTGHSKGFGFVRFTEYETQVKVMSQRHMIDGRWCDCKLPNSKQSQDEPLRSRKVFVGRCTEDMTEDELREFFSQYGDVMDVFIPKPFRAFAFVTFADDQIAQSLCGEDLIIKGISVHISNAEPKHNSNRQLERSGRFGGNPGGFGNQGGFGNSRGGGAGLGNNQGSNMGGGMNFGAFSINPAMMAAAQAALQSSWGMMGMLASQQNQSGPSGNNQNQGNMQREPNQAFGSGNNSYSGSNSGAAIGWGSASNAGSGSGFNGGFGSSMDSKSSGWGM
- assay_notes: RNA Bind-n-Seq with designed 260-mer pool; 25 mM Tris-HCl, 150 mM KCl, 3 mM MgCl2, BSA (printed 500 mg/mL), 20 units/mL SUPERase IN; pH not stated; 500 nM RNA pool, 1 h, 4 C; TDP-43 5, 50, 500 nM; high values mean tight binding
- experimental_conditions: protein: recombinant; tags: SBP (GST cleaved off with PreScission; pGEX-GST-SBP)
In all, about 9,900 sequences were measured (“r (bound/input frequency ratio)”: median about 0.7, highest 2% from about 6.5 on). The full list was thinned out, with the highest values kept by preference.
endpoint: binding signal

binding signal recorded for this binder, ENSMUSG00000061578.946|Ksr2 (ssRNA) RNA: GGGAGUUCUACAGUCCGACGAUCGCUUCGAUAUCCGCAUGCUAAACAAGAAGACUGCAUGUUAACGCUCCUGCCACUGUUGCCCCUUCCUUUACCCUUGGCAGACAUUGCUAAUCAAUCUCAGCACAGUUUCCAACCACAGUCAUAGAACAUUUGCCACAAAGGCCCUGGAUGUGACUAUAUGUGCUGAGAAGGGAAGGUAGUUUUCCCCCAGAAAGUCCCUUCUAAUAAACAUUGAUGACUUUAGAAUCCAUGACUCAGAAUUUUCCAGAGACCCAAUCCCUCGGGGUCCACUUAGUGAUGGCUCUUGCGGUCGCACUAGUGUGGAAUUCUCGGGUGUCAAGG , is 0.389 R (bound/input frequency ratio)

Measured values drawn from paper PMC12864922 for this set.
